- target-under-test: T1, Fas ligand (human, UniProt P48023 134-281, limits assumed)
- T1 sequence (looked up): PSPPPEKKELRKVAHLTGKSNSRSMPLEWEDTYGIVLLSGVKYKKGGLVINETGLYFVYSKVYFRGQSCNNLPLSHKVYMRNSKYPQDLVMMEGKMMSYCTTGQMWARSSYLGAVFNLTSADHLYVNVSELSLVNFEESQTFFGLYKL
- assay-comment: phage ELISA
quantity-name: binding result

{"columns": ["binder", "quantity-name", "test-value"],
 "data": [
  ["I008C03 (scFv) scFv: QMQLVRSGGGVVQPGRSLRLSCAASGFTFSSYGMHWVRQAPGKGLEWVSVTYSGGNTNYADSVRGRFTISRDNSKNTLYLQMNSLRAEDTAVYYCAREGSYDILTGYYVGVGRMDVWGKGTLVTVSSGGGGSGGGGSGGGGSSELTQDPAVSVALGQTVRITCQGDSLRSYYTNWFQQKPGQAPLLVVYAKNKRPSGIPDRFSGSSSGNTASLTITGAQAEDEADYYCNSRDSSGNHVVFGGGTKLTVLG", "binding result", "no binding"],
  ["I006D07 (scFv) scFv: EVQLVESGGGVVQPGGSLRLSCAASGFTVNSYAMHWVRQAPGKGLQWVAVIPYDGSKKYYADSVKGRFTVSRDNSKNTLYLQMNSLRAEDTAVYYCARSHYDILTGLNYWYFDLWGRGTLVTVSSGGGGSGGGGSGGGGSSELTQDPAVSVALGQTVRITCQGDSLRSYYASWYQQKPGQAPVLVIYGKNNRPSGIPDRFSGSSSGNTASLTITGAQAEDEADYYCNSRGSSGNHVVFGGGTKLTVLG", "binding result", "no binding"]
]}
